Values were extracted from ChEMBL document CHEMBL1828531.

biological target: Polyunsaturated fatty acid 5-lipoxygenase (Homo sapiens, UniProt P09917); assay: Inhibition of 5-Lipoxygenase in arachidonic acid-stimulated human neutrophils after 15 mins by HPLC analysis in presence of A23187
What pIC50 was measured for each of the following?
Just the number, please; pIC50 means minus log10 of the concentration in mol/L.

Quick note, pIC50 for "CC(C)(C)c1ccc(CN2CCN(C(=O)CCc3cc(-c4ccc(C(F)(F)F)cc4)n(-c4ccccc4)n3)CC2)cc1" landed at 5.54

Quick note, pIC50 for "Cc1ccc(-c2cc(CCC(=O)Oc3ccc(C(C)C)cc3)nn2-c2ccccc2)cc1" landed at 5.70

Quick note, pIC50 for "CCOC(=O)C1CCN(C(=O)CCc2cc(-c3ccc(C)cc3)n(-c3ccc4ccccc4n3)n2)CC1" landed at 5.40

Quick note, pIC50 for "CC(C)(C)c1ccc(CN2CCN(C(=O)CCc3cc(-c4ccc(F)cc4)n(-c4ccccc4)n3)CC2)cc1" landed at 5.60

Quick note, pIC50 for "CC(C)(C)c1ccc(CN2CCN(C(=O)CCc3cc(-c4ccc(C(F)(F)F)cc4)n(-c4ccc(Cl)cc4)n3)CC2)cc1" landed at 5.10

Quick note, pIC50 for "CC(C)(C)c1ccc(CN2CCN(C(=O)CCc3cc(-c4ccc(F)cc4)n(-c4ccc5ccccc5n4)n3)CC2)cc1" landed at 5.55

Quick note, pIC50 for "CCOC(=O)C1CCN(C(=O)CCc2cc(-c3ccc(C)cc3)n(-c3ccccc3)n2)CC1" landed at 5.62

Quick note, pIC50 for "Cc1ccc(-c2cc(CCC(=O)N3CCN(Cc4ccc(C(C)(C)C)cc4)CC3)nn2-c2ccc3ccccc3n2)cc1" landed at 5.46

Quick note, pIC50 for "CC(C)(C)c1ccc(CN2CCN(C(=O)CCc3cc(-c4ccc(C(F)(F)F)cc4)n(-c4ccc5ccccc5n4)n3)CC2)cc1" landed at 5.52

Quick note, pIC50 for "CC(C)(C)c1ccc(CN2CCN(C(=O)CCc3cc(-c4ccc(C(F)(F)F)cc4)n(-c4ccc(Cl)nn4)n3)CC2)cc1" landed at 5.54

---

biological target: Polyunsaturated fatty acid lipoxygenase ALOX15 (Homo sapiens); experiment: Inhibition of 15-Lipoxygenase-mediated 15-HETE in human neutrophil after 15 mins by HPLC analysis
Sequence (P16050 whole entry): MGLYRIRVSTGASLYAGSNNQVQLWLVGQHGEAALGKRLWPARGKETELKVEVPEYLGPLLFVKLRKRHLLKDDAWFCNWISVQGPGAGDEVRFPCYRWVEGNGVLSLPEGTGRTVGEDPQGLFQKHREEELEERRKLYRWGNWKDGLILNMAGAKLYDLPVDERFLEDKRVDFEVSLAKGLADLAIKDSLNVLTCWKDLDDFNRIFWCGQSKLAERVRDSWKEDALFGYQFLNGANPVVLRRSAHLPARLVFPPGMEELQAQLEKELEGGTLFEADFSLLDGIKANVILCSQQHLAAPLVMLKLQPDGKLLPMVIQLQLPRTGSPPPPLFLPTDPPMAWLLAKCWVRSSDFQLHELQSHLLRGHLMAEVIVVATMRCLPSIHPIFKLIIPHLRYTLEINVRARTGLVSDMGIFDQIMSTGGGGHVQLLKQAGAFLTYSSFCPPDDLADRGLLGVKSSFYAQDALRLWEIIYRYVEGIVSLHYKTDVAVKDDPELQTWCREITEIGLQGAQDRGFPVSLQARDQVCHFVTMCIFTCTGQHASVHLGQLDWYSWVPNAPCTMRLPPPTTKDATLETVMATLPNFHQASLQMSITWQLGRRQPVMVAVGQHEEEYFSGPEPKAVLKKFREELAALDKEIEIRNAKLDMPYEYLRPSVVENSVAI
pIC50: −log10 of the molar value.
What pIC50 was measured for each of the following?

Quick note, pIC50 for "Cc1ccc(-c2cc(CCC(=O)N3CCN(Cc4ccc(C(C)(C)C)cc4)CC3)nn2-c2ccccc2)cc1" landed at < 5.00

Quick note, pIC50 for "Cc1ccc(-c2cc(CCC(=O)Oc3ccc(C(C)C)cc3)nn2-c2ccc3ccccc3n2)cc1" landed at < 5.00

Quick note, pIC50 for "CCOC(=O)C1CCN(C(=O)CCc2cc(-c3ccc(C)cc3)n(-c3ccccc3)n2)CC1" landed at < 5.00

---

Molecular target: UniProt:P09917
Sequence (whole entry): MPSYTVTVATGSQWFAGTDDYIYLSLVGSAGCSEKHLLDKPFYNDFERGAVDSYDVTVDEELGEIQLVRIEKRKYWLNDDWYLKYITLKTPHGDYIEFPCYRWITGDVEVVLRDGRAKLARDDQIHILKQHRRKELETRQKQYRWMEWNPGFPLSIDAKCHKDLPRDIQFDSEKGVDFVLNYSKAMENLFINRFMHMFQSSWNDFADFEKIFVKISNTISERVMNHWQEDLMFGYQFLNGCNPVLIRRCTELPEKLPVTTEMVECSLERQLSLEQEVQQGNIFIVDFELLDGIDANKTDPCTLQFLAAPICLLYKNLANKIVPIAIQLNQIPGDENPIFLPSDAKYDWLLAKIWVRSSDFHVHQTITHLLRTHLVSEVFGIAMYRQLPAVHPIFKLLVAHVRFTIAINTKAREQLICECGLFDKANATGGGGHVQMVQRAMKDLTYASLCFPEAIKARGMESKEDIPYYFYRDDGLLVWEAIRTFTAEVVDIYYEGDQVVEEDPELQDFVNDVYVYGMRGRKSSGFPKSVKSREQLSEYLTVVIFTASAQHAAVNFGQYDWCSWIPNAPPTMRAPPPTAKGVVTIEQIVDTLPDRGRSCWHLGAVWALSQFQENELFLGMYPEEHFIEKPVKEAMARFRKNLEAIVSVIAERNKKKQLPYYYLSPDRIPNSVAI
Assay: Inhibition of recombinant human 5-Lipoxygenase expressed in Escherichia coli lysate assessed as residual activity at 10 uM after 10 mins by HPLC analysis
Answer FALSE if Activity is under 90%, and TRUE if it is 90% or more.

Task: Does Activity meet or surpass 90% for "CC(C)(C)c1ccc(CN2CCN(C(=O)CCc3cc(-c4ccc(C(F)(F)F)cc4)n(-c4ccccc4)n3)CC2)cc1" ?
Output: TRUE

Task: Does Activity meet or surpass 90% for Cc1ccc(-c2cc(CCC(=O)N3CCN(CC4CCCO4)CC3)nn2-c2ccc(Cl)nn2)cc1 (centres undefined) ?
Output: TRUE

Task: Does Activity meet or surpass 90% for "Cc1ccc(-c2cc(CCC(=O)N3CCN(Cc4ccc(C(C)(C)C)cc4)CC3)nn2-c2ccccc2)cc1" ?
Output: FALSE

Task: Does Activity meet or surpass 90% for "CC(C)(C)c1ccc(CN2CCN(C(=O)CCc3cc(-c4ccc(F)cc4)n(-c4ccc(Cl)cc4)n3)CC2)cc1" ?
Output: TRUE

Task: Does Activity meet or surpass 90% for "Cc1ccc(-c2cc(CCC(=O)Oc3ccc(Oc4ccc(C(F)(F)F)cc4)cc3)nn2-c2ccc(Cl)nn2)cc1" ?
Output: TRUE

Task: Does Activity meet or surpass 90% for "CC(C)(C)c1ccc(CN2CCN(C(=O)CCc3cc(-c4ccc(F)cc4)n(-c4ccc(Cl)nn4)n3)CC2)cc1" ?
Output: FALSE

---

molecular target: Polyunsaturated fatty acid 5-lipoxygenase (Homo sapiens) (UniProt P09917); assay: Inhibition of recombinant human 5-Lipoxygenase expressed in Escherichia coli lysate assessed as residual activity at 10 uM after 10 mins by HPLC analysis
What Activity was measured for each of the following?
Numbers only here, please. The scale is %.

Quick note, Activity for "Cc1ccc(-c2cc(CCC(=O)Nc3ccc(N4CCOCC4)nc3)nn2-c2ccc(Cl)nn2)cc1" landed at 90

Quick note, Activity for "COc1ccc(NC(=O)CCc2cc(-c3ccc(F)cc3)n(-c3ccc(Cl)nn3)n2)cc1" landed at 91.6

Quick note, Activity for "O=C(CCc1cc(-c2ccc(C(F)(F)F)cc2)n(-c2ccc(Cl)nn2)n1)Oc1ccc(-n2cccc2)cc1" landed at 90.8
